Assay: NCI Yeast Anticancer Drug Screen. Data for the mlh1 strain (AID 171);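 further: 0% = growth of vehicle-treated control cultures of the same strain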
Settings: S. cerevisiae mlh1 strain growth inhibition; at 3.7 µM; hits give high values
Compounds without any hit were thinned out: in the full panel of roughly 79,000, 15% have a hit.
Reported growth inhibition values follow for various molecules
metric: growth inhibition (%)

>>> data_value("Nc1cc(S(N)(=O)=O)ccc1SSc1ccc(S(N)(=O)=O)cc1N")
4
>>> data_value("O=C1C=CC(=O)N1c1ccc2c(c1)OCO2")
58
>>> data_value("Clc1c(Cl)c(Cl)c2n[nH]nc2c1Cl")
-52
>>> data_value("OB(O)c1ccccc1C#Cc1ccccc1B(O)O")
1
>>> data_value("Nc1cc(F)cc2c1-c1ccc(F)cc1C2")
-3
>>> data_value("CCCCC1=NNC(=O)C1")
1
>>> data_value("CCN1/C(=C/c2ccc3ccccc3[n+]2CC)C=Cc2ccccc21")
-15
>>> data_value("N#CC(=C1C=CC(=NO)C=C1)c1ccccc1")
15
>>> data_value("CCOP1(=O)C=C(Sc2ccc([N+](=O)[O-])cc2[N+](=O)[O-])C(C)(C)O1 (stereo not given)")
7
>>> data_value("Cc1ccc2c(ccc(/C=C/c3ccc(O)c4ncccc34)[n+]2C)c1")
60
>>> data_value("CC(=O)[O-].O=C([CH-]C(=O)c1ccccc1)c1ccccc1.O=C([CH-]C(=O)c1ccccc1)c1ccccc1.[Sm+3]")
8
>>> data_value("CC(=O)CC(=O)/C=C/c1cccs1")
-24
>>> data_value("COC(=O)c1cccc(C)c1C(=O)c1c(C)cc(C)cc1C")
2
>>> data_value("CCCCCCSc1nc(COC(=O)NC)c(COC(=O)NC)n1C")
0
>>> data_value("O=C1NC(c2c(Cl)cccc2Cl)Nc2ccccc21 (stereo not given)")
-29
>>> data_value("S=c1[nH]nc(-c2ccc(Cl)cc2)s1")
-17
>>> data_value("COc1cc(/C=C/c2sc3ccccc3[n+]2C)ccc1N(C)C")
-4
>>> data_value("O=C1C=CC(=Nc2ccccc2)c2ccccc21")
5
>>> data_value("Cc1cc(C)c(N2C(=O)CC(Sc3ccccc3N)C2=O)c(C)c1 (stereo not given)")
-27
>>> data_value("Clc1c(Cl)c(Cl)c2c(nnn2C2CCCO2)c1Cl (stereo not given)")
-2
>>> data_value("C/C(=N\\NC(=S)NNC(=S)N(C)c1ccccc1)c1ccccn1")
41
>>> data_value("Oc1ccc(Br)cc1C=NC1CCCCC1")
17
>>> data_value("CCCCOC(=O)CSSCC(=O)OCCCC")
7
>>> data_value("Cc1ccc(Nc2c3c(c(C#N)c4nc5ccccc5n24)CCCC3)cc1")
15
>>> data_value("CC[C@@]1(OC(=O)CN(C)C)C(=O)OCc2c1cc1n(c2=O)Cc2cc3c(N)cccc3nc2-1")
-2
>>> data_value("CC(C)c1cccc(O)c(=O)c1")
-1
>>> data_value("O=C(NC(=S)Nc1ccccn1)c1ccccc1")
-34
>>> data_value("Clc1cc(-c2ccccc2)nc2ccccc12")
27
>>> data_value("O=S(=O)(c1cc(Cl)ccc1O)c1cc(Cl)ccc1O")
85
>>> data_value("C(=N/NC1=NCCN1)/c1c2ccccc2c(/C=N\\NC2=NCCN2)c2ccccc12")
16
>>> data_value("Cc1cc(OCc2ccccc2)ccc1[N+](=O)[O-]")
15
>>> data_value("OCCN(CCO)c1ccc2c(c1)Cc1ccccc1-2")
-7
>>> data_value("N#CSC1CCCCNC1=O (stereo not given)")
-4
>>> data_value("CC(=O)Oc1ccc(C(=O)c2ccccc2)c(O)c1")
-1
>>> data_value("CCCCCCCCCCCc1nc(N)n[nH]1")
-6
>>> data_value("O=Nc1ccc(Nc2ccccc2)cc1")
-36
>>> data_value("CC(=O)OCC1OC(O[C@H]2C=C[C@@H](C(=O)OCc3ccccc3)n3c(=O)n(-c4ccccc4)c(=O)n32)C(OC(C)=O)C(OC(C)=O)C1OC(C)=O (stereo not given in full)")
-2
>>> data_value("O=C(NCCCCCN1CCC2(CCCCC2)CC1)C(C1CCCCC1)C1CCCCC1")
7
>>> data_value("NC(N)=N/N=C/c1cc(Cl)cc(Cl)c1O")
9
>>> data_value("COc1cccc(C(c2cc3c(cc2O)OCO3)N2CCOCC2)c1OC (stereo not given)")
-1
>>> data_value("O=C1OC2C(O)COC2(OCc2c[nH]c3ccccc23)C1O (stereo not given) (tested in a mixture with another compound)")
-2
>>> data_value("O=NN(CCCl)C(=O)NC1CCCCC1")
1
>>> data_value("Cc1ccc(CNc2ccc(Br)cc2)cc1")
-31
>>> data_value("CCc1[nH]nc(C(N)=O)c1N=NN(C)C")
-4
>>> data_value("O=c1ccc(N=Nc2ccccc2)ccc1O")
90
>>> data_value("COc1ccc(/C=C(\\NC(=O)c2ccccc2)C(=O)NN(C)c2ccnc3cc(Cl)ccc23)cc1OC")
1
>>> data_value("Nc1ccc2c(c1)sc1ccccc12")
-4
>>> data_value("CCN(CC)CC(O)C1CCC(c2ccccc2)CC1 (stereo not given)")
10
>>> data_value("Cc1cccc2c1N=C(C(F)(F)F)CC2=O")
2
>>> data_value("CCC(=O)Oc1ccc(/C=N/NC(N)=S)nc1")
-3
